This collection of values is drawn from the supplement of paper PMC9170038.

- Tested on: MS2 coat protein
- ASSAY PROTOCOL: apparent KD of MS2 coat protein; higher = weaker reporter binding
- STUDY CONDITIONS: Eterna round: R107; input ligand: theophylline 20 uM
Would you mind telling me the reported apparent KD of MS2 coat protein of each entry?
Numbers only, in nM.

Known apparent KD of MS2 coat protein results, listed for orientation:
residue_string="AGUACAUGAGGAUCACCCAUGUAUCGGUACCGAGGACCGGUACGGCCGCCACUCGCAGGACAUGAGGAUCACCCAUGUGCAGCCG [SSTA DOUBLE!!! :-D #10]" experimental_value=40.9
residue_string="CUCAUCCACGCGGCCGCCACUAUAUUGUGGUGUGGGUGUGACGUAUUACAUGAGGAUCACCCAUGUAGGACCGGGCGUGGAUGAG [Stork]" experimental_value=525
residue_string="UUGGGUUUGUGAAGGAGCGGGUAUGUUUUCUAGUGGAUCCUAACAUGAGGAUCACCCAUGUCCCAGGUAGGUCGCGCGGGUUUGG [12.U]" experimental_value=227
residue_string="GGUUUGCGGCCUGAUACCAGUGAUGGAUGAACCCUAGUCAACAUGAGGAUCACCCAUGUUCACCCUUGGCAGCAGUGACGCUCGA [theeternabot_exclusion_MS2_Theo_B_34]" experimental_value=78.7
residue_string="CCUGCUACGGGAAACCGUAGCAGGAAUGAUACCAGUAGGAAAGACUACCCUUGGCAGCAUGGGAAACAUGAGGAUCACCCAUGUU [SSThA NP+V+V2 #7 Same Structure]" experimental_value=76.3

QUERY: Lab request: please report apparent KD of MS2 coat protein under test system MS2 coat protein for CCGUUUUAUGGCGACAUAGGGCGGACUGAAGGAGCGGUAUAAUAGCCAGGUAGGUCGCAGAGAUCCACAUGAGGAUCACCCAUGU [!0.aB]
RESULT: 51.5

###

Please provide measured apparent KD of MS2 coat protein for the entries that follow.
- Tested on: MS2 coat protein
- ASSAY PROTOCOL: apparent KD of MS2 coat protein; higher = weaker reporter binding
- STUDY CONDITIONS: Eterna round: R107; input ligand: tryptophan 2.4 mM
Numbers only, in nM.

Previously resolved entries follow.
residue_string="UACAUGAGGAUCACCCAUGUGUAACCAGAAGGAGCGUGCGAAAGCACAGGUAGGUCGCUGGUGGGUUUAGGUUUAAUAGGUGUAU [SSAA NP+V+V2 #4 +-Same Structure]" readout_name="apparent KD of MS2 coat protein" experimental_value=34.6
residue_string="AGUGUUAUAACUGAUACCAGACUUGCGCUUAAACAUGAGGAUCACCCAUGUAAAAUGGUUGUCCCUUGGCAGCAGAAAAUACACA [JR_SSTheophyB_Sub006]" readout_name="apparent KD of MS2 coat protein" experimental_value=98.4
residue_string="CGCGUCCCGGACGAUACCAGAUAUGAGCGACACAUGAGGAUCACCCAUGUCAAUCAUGAGAUCCCUUGGCAGCGUUUGCACAACU [theeternabot_sameState_MS2_Theo_B_8]" readout_name="apparent KD of MS2 coat protein" experimental_value=183
residue_string="CAUGUUGUUGAAGAUACCAGAUUCUGAACGUUCACAUGAGGAUCACCCAUGUAAGUCCGAGUCCCUUGGCAGCUUAUACAGGUGG [Reatlala]" readout_name="apparent KD of MS2 coat protein" experimental_value=47.7
residue_string="UUUUAACAUGAGGAUCACCCAUGUAAUGAUACCAGAGACGAAAGUCUCCCUUGGCAGCAUAAUCAUUACAUGAGAUGGAAACAUC [Theophylline A 7]" readout_name="apparent KD of MS2 coat protein" experimental_value=17.5

Attention now turns to another entry.
QUERY: Can you look up the measured apparent KD of MS2 coat protein of GGAUAGAUAGGAGAUACCAGAUACAUAAACAUGAGGAUCACCCAUGUGUCUGCACUAAGUAUCCCUUGGCAGCUCGGAGAUCUGA [#17 Same State - Theophylline B] for me?
RESULT: 18.5
